Measured On: human NCX1 (Homo sapiens, UniProt P32418)
Construct: expressed in transfected cells
Test Description: NCX1 inhibition, reverse mode (Ca2+ influx into cells), FLIPR Fluo-4 assay
Assay type: cell-based
Measurement Parameters: inhibition of NCX1 in reverse mode (Ca2+ influx into cells); read-out: NCX1rv IC50
Counter-ions that a name gives are not always drawn.
Quantity: IC50 (nM)

Some entries whose results are on file:
                                   molecule  quantity  result_value
0  O=C(NCc1ccno1)c1cnc(Oc2ccc3c(c2)CCC(c2cccnc2)O3)s1 (stereo not drawn) [Example 58, hydrochloride]      IC50           600
1  Cc1noc(C)c1CCNC(=O)c1cnc(Oc2ccc3c(c2)CCC(c2cccc(O)c2)O3)s1 (stereo not drawn) [compound 173]      IC50          2300
2  Cc1nc(Oc2ccc3c(c2)CC[C@@H](c2ccccc2)O3)sc1C(=O)NCCc1ccncc1 [compound 169, hydrochloride]      IC50           300

I. CCOC(=O)[C@H](C)NC(=O)c1cnc(Oc2ccc3c(c2)CCC(c2cccnc2)O3)s1 (stereo partly drawn) [compound 276]
II. O=C(NCc1nnc2ccccn12)c1cnc(Oc2ccc3c(c2)CCC(c2cccc(F)c2)O3)s1 (stereo not drawn) [compound 17, hydrochloride]
Query string: In the pair I and II , the larger recorded IC50 belongs to which? Please identify the chosen entry by its label.
Result string: I
(I: 400 nM, II: 200 nM)

Reference source: patent US20140243292A1
